Experiment: Stat Signaling Pathway (AID 446);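 also: ME-180 cervical cancer cells given 40 pM IL-6 alongside compound; SIE-controlled beta-lactamase reporter measured as 460/530 nm FRET emission ratio; % is scaled to controls: 0 for no effect and ±100 for the full control effect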
Settings: ME-180 SIE beta-lactamase reporter, IL-6 stimulated, 5 h; at 17.2 µM (top of the series) unless noted
Results filed as inconclusive are left out.
Measured parameter: activity, negative = inhibition (%)
Give a bare numeral; the unit % is implied.

[ask] Give the reported activity, negative = inhibition for this compound. S=c1[nH]nc(-c2ccco2)n1C1CCCCC1
[reply] 1.34

[ask] Give the reported activity, negative = inhibition for this compound. Cc1nc(NCCN)c(C#N)c2c1COC(C)(C)C2
[reply] 7.79

[ask] Give the reported activity, negative = inhibition for this compound. CN1C(=O)NC(NC(=O)c2ccco2)(C(F)(F)F)C1=O (configuration not stated)
[reply] 9.87

[ask] Give the reported activity, negative = inhibition for this compound. CCOC(=O)N1CC=C2C(C#N)=C(N)C(C#N)(C#N)[C@H](c3cccs3)[C@H]2C1
[reply] -16

[ask] Give the reported activity, negative = inhibition for this compound. COc1ccc(C2/C(=C(\O)c3ccc4c(c3)OCCO4)C(=O)C(=O)N2CCCN(C)C)cc1 (configuration not stated)
[reply] 2.89

[ask] Give the reported activity, negative = inhibition for this compound. Cc1cc(C)n(CC2CC(=O)N(c3ccc(Cl)c(Cl)c3)C2=O)n1 (configuration not stated)
[reply] 0.577

[ask] Give the reported activity, negative = inhibition for this compound. O=C(O)c1cc2n(n1)C(C(F)(F)F)CC(c1ccccc1)N2 (configuration not stated)
[reply] -1.46

[ask] Give the reported activity, negative = inhibition for this compound. C[C@@H]1C[C@H](Nc2ccccc2)c2ccccc2N1C(=O)c1cccnc1
[reply] -2.73

[ask] Give the reported activity, negative = inhibition for this compound. CCOP(=O)(c1ccccc1)C1(C#N)CCCC1 (configuration not stated)
[reply] 7.92

[ask] Give the reported activity, negative = inhibition for this compound. N#CC1=C(N)OC2=C(C(=O)CCC2)[C@]12C(=O)N(CC(N)=O)c1ccccc12
[reply] 1.02

[ask] Give the reported activity, negative = inhibition for this compound. CCC(=O)Nc1ccc(-c2nnc(SCC(=O)NCC3CCCO3)n2C)cc1 (configuration not stated)
[reply] 1.52

[ask] Give the reported activity, negative = inhibition for this compound. CCCCCCCC(=O)OCC(=O)[C@@]1(O)CC[C@H]2[C@@H]3CCC4=CC(=O)CC[C@]4(C)[C@H]3[C@@H](O)C[C@@]21C
[reply] 7.91

[ask] Give the reported activity, negative = inhibition for this compound. COc1ccc(-c2cc(=O)[nH]c(=O)[nH]2)cc1
[reply] -5.47

[ask] Give the reported activity, negative = inhibition for this compound. CC(=O)/C(C#N)=C1\NC(=O)C(Cc2ccccc2)S1 (configuration not stated)
[reply] 3.16

[ask] Give the reported activity, negative = inhibition for this compound. N#CC1=C(N)N2C(=C(C#N)C1c1ccccc1)Sc1ccccc12 (configuration not stated)
[reply] 3.71

[ask] Give the reported activity, negative = inhibition for this compound. CCCCc1cc(=O)oc2c(CN3CCCC3)c(O)ccc12
[reply] 3.31

[ask] Give the reported activity, negative = inhibition for this compound. CCOc1ccc(-c2nnc3sc(COc4ccccc4)nn23)cc1
[reply] 4.42

[ask] Give the reported activity, negative = inhibition for this compound. O=C(NCc1ccco1)c1cnn2c(C(F)(F)F)cc(-c3ccco3)nc12
[reply] 10.1

[ask] Give the reported activity, negative = inhibition for this compound. COC(=O)c1ccc(=O)n(Cc2ccc3c(c2)OCO3)c1
[reply] -1.86

[ask] Give the reported activity, negative = inhibition for this compound. CCOC(=O)c1[nH]c2ccc(OC)cc2c1NC(=O)CCN1CCc2ccccc2C1
[reply] -3.49

[ask] Give the reported activity, negative = inhibition for this compound. CCN(CC)CCN1C(=O)C(=O)/C(=C(/O)c2ccc(F)cc2)C1c1ccncc1 (configuration not stated)
[reply] 1.89

[ask] Give the reported activity, negative = inhibition for this compound. Cc1cc(CCC(=O)O)c(C)cc1CCC(=O)O
[reply] 7.37

----------
Test: AP1 Signaling Pathway (AID 357);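 also: ME-180 reporter cells stimulated with EGF at its EC50 level; % is scaled to controls: 0 for no effect and ±100 for the full control effect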
Settings: ME-180 (cervical carcinoma) AP-1-bla reporter, EGF-induced, beta-lactamase ratio, 5 h; at 17.2 µM (top of the series) unless noted
Records with an inconclusive call do not appear. Active and inactive are the calls of the source. Calls come from the whole dose curve; as a rule, active = well fitted curve in either direction with a large enough effect (not every such curve was filed as active); inconclusive = small, poorly fitted or top-dose-only effect, or another doubt; inactive = flat fitted curve, though single readings scatter.
Measured parameter: activity change, negative = inhibition

[ask] Give the reported activity change, negative = inhibition for this compound. COC(=O)c1cc(Br)c(=O)n(Cc2ccco2)c1
[reply] 10.7% (inactive)

[ask] Give the reported activity change, negative = inhibition for this compound. CCCOc1ccc(/C(O)=C2/C(=O)C(=O)N(CCN(C)C)C2c2ccc(OC)c(OC)c2)cc1 (configuration not stated)
[reply] -7.95% (inactive)

[ask] Give the reported activity change, negative = inhibition for this compound. N#Cc1c(N)nc(SCC(=O)NCc2ccc3c(c2)OCO3)c(C#N)c1-c1cccs1
[reply] -27.2% (inactive)

[ask] Give the reported activity change, negative = inhibition for this compound. COC(=O)CCc1c(C)[nH]c(C(=O)OCc2ccccc2)c1C
[reply] -13.9% (inactive)

[ask] Give the reported activity change, negative = inhibition for this compound. Cc1cccc(N)c1SC1CCCCC1O (configuration not stated)
[reply] -3.66% (inactive)

[ask] Give the reported activity change, negative = inhibition for this compound. CC(C)NCc1c(O)c(Br)cc2oc3c(c12)CCCC3
[reply] 28.5% (inactive)

[ask] Give the reported activity change, negative = inhibition for this compound. CCOc1ccc2c(ccc(/C=C\c3cc(C)c4cccnc4c3O)[n+]2C)c1
[reply] -9.14% [at 7.69 µM] (inactive)

[ask] Give the reported activity change, negative = inhibition for this compound. Cc1cc(=O)oc2c(CN3CCN(C)CC3)c(O)c(Cl)cc12
[reply] 16.9% (inactive)

[ask] Give the reported activity change, negative = inhibition for this compound. Cc1ccc2cc(CN(C(=O)c3ccco3)c3ccccc3)c(=O)[nH]c2c1
[reply] -24.5% (inactive)

[ask] Give the reported activity change, negative = inhibition for this compound. CC1(C)CC(=O)C=C(NCc2ccncc2)C1
[reply] 10% (inactive)

[ask] Give the reported activity change, negative = inhibition for this compound. CCCC1C2C(=O)N(c3ccccc3OC)C(=O)C2ON1c1ccccc1 (configuration not stated)
[reply] 1.4% (inactive)

[ask] Give the reported activity change, negative = inhibition for this compound. COc1cc(C)nc(Nc2nc(C)c(C(C)=O)s2)n1
[reply] 12.9% (inactive)

[ask] Give the reported activity change, negative = inhibition for this compound. CCOP(=O)(c1ccccc1)c1nc(-c2ccccc2C)oc1N1CCCCC1 (configuration not stated)
[reply] -1.96% (inactive)

[ask] Give the reported activity change, negative = inhibition for this compound. CN(C)CCCn1c(NC(=O)C2CCCCC2)nc2ccccc21
[reply] 1.38% (inactive)

[ask] Give the reported activity change, negative = inhibition for this compound. CCCCOc1ccccc1P(=O)(O)CP(=O)(c1ccccc1)c1ccccc1
[reply] -13.5% (inactive)

[ask] Give the reported activity change, negative = inhibition for this compound. O=C(NCCC1=CCCCC1)c1ccc(=O)oc1
[reply] -16% (inactive)

[ask] Give the reported activity change, negative = inhibition for this compound. O=C(c1ccccc1F)N1CCC(N2CCCCCC2)CC1
[reply] -3.96% (inactive)

[ask] Give the reported activity change, negative = inhibition for this compound. CC(C)=CCC(C)(C)CNC(=O)NC1CCCCC1
[reply] -8.2% (inactive)

[ask] Give the reported activity change, negative = inhibition for this compound. COC(=O)C(NC(C)=O)(Nc1ccc(Br)cc1)C(=O)OC
[reply] 8.16% (inactive)

[ask] Give the reported activity change, negative = inhibition for this compound. CCc1nc(N2CCOCC2)c(C#N)c2c1CCCC2
[reply] -3.85% (inactive)

[ask] Give the reported activity change, negative = inhibition for this compound. COc1ccc(CCn2c(C)ccc2C)cc1OC
[reply] -3.97% (inactive)

[ask] Give the reported activity change, negative = inhibition for this compound. COc1ccccc1C1/C(=C(/O)c2ccc(OC(C)C)cc2)C(=O)C(=O)N1c1cc(C)on1 (configuration not stated)
[reply] -28.1% (inactive)

[ask] Give the reported activity change, negative = inhibition for this compound. COc1ccc(-c2cc(=O)[nH]c(=O)[nH]2)cc1
[reply] 6.12% (inactive)

[ask] Give the reported activity change, negative = inhibition for this compound. CSc1sc(C(=O)O)c2c1C(=O)CCC2
[reply] 12.2% (inactive)

[ask] Give the reported activity change, negative = inhibition for this compound. COc1cccc(/C(O)=C2\C(=O)C(=O)N(c3ccccn3)C2c2ccccc2OC)c1 (configuration not stated)
[reply] -8.01% (inactive)

[ask] Give the reported activity change, negative = inhibition for this compound. O[Si@](CCCN1CCCCC1)(c1ccc(F)cc1)C1CCCCC1
[reply] 11.3% [at 38 µM] (inactive)

[ask] Give the reported activity change, negative = inhibition for this compound. CCN(CC)CCN1C(=O)C(O)=C(C(C)=O)C1c1ccc(OC)c(OC)c1 (configuration not stated)
[reply] 1.74% (inactive)

[ask] Give the reported activity change, negative = inhibition for this compound. CCN(CC)CCN1C(=O)C(=O)/C(=C(/O)c2ccc(OC(C)C)cc2)C1c1ccncc1 (configuration not stated)
[reply] -12% (inactive)

[ask] Give the reported activity change, negative = inhibition for this compound. Cc1cc(=O)oc(C)c1C(=O)Nc1cccc2nonc12
[reply] -1.38% (inactive)

[ask] Give the reported activity change, negative = inhibition for this compound. CCCSc1nc(O)c(C2OC(=O)c3c2ccc(OC)c3OC)c(=O)n1C (configuration not stated)
[reply] 17.4% (inactive)

[ask] Give the reported activity change, negative = inhibition for this compound. CCOC(=O)c1c(NC(=O)CCN2CCOCC2)sc2c1CC(C)(C)OC2
[reply] -21.7% (inactive)

[ask] Give the reported activity change, negative = inhibition for this compound. COC(=O)c1ccc(CN(C(C)=O)c2ccccc2)o1
[reply] 10.5% (inactive)

[ask] Give the reported activity change, negative = inhibition for this compound. Cc1ccc(S(=O)(=O)N(CC(O)CN(C)C)c2ccccc2)cc1 (configuration not stated)
[reply] 6.2% (inactive)

[ask] Give the reported activity change, negative = inhibition for this compound. COC(=O)C(NC(C)=O)(Nc1ccccc1)C(=O)OC
[reply] 2.11% (inactive)

[ask] Give the reported activity change, negative = inhibition for this compound. Cn1c(NCCCO)nc2c1c(=O)n(Cc1ccccc1F)c(=O)n2C
[reply] -2.43% (inactive)

[ask] Give the reported activity change, negative = inhibition for this compound. Cc1ccc2[nH]c(CCN(C)C)c(CC#N)c2c1
[reply] 12.9% (inactive)

[ask] Give the reported activity change, negative = inhibition for this compound. CCN(CC)CCCN1C(=O)C(=O)/C(=C(/O)c2ccccc2)C1c1ccccn1 (configuration not stated)
[reply] -0.714% (inactive)

[ask] Give the reported activity change, negative = inhibition for this compound. CCOC(=O)COc1ccc(Oc2nc(C)cc(OC)n2)nn1
[reply] 13.9% (inactive)

[ask] Give the reported activity change, negative = inhibition for this compound. CCc1nc(NCC2CCCO2)c(C#N)c2c1COC(C)(C)C2 (configuration not stated)
[reply] -25.1% (inactive)

[ask] Give the reported activity change, negative = inhibition for this compound. O=C(Nc1ccc(Cl)cn1)C1CCCN1S(=O)(=O)c1ccccc1 (configuration not stated)
[reply] -9.31% (inactive)

[ask] Give the reported activity change, negative = inhibition for this compound. CCCc1cc(NCCN2CCOCC2)n2c(nc3ccccc32)c1C#N
[reply] -11.4% (inactive)

[ask] Give the reported activity change, negative = inhibition for this compound. CC(=O)C(=[N+]=[N-])C(=O)NCc1ccccc1
[reply] 7.12% (inactive)

[ask] Give the reported activity change, negative = inhibition for this compound. CSc1nc(N2CCCC2)c2c(c1C#N)CC(C)(C)OC2
[reply] -20.7% (inactive)

[ask] Give the reported activity change, negative = inhibition for this compound. COc1cc(NC(=O)NC(C)(C(F)(F)F)C(F)(F)F)cc(OC)c1OC
[reply] -9.62% (inactive)

[ask] Give the reported activity change, negative = inhibition for this compound. CC(=O)Nc1ccc(OC(=O)CC2SC(=O)NC2=O)cc1 (configuration not stated)
[reply] 6.63% (inactive)

[ask] Give the reported activity change, negative = inhibition for this compound. COc1ccc(CCn2c(=N)c(C#N)cc3c(=O)n4ccccc4nc32)cc1
[reply] -1.65% (inactive)

[ask] Give the reported activity change, negative = inhibition for this compound. CCOC(=O)COc1nc(N(C)C)nc(N(C)C)n1
[reply] 5.84% (inactive)

Cited source: PubChem BioAssay (NCATS)
